# Tested on: DLD1
# assay.overview: TCF/Wnt firefly luciferase reporter signal relative to plate median (fraction of plate median); higher = higher Wnt reporter signal
# measurement.conditions: 5 µM; treatment time 24 h; reporter: 7TFP
quantity.kind: TCF/Wnt firefly luciferase reporter signal
Answer with the value's number alone.

-- ask Look up TCF/Wnt firefly luciferase reporter signal: `CNC[C@H](O)c1cccc(O)c1`
-- reply 1.02

Next:
-- ask Which value of TCF/Wnt firefly luciferase reporter signal has been reported for `Cc1ccc(-c2cc(C(F)(F)F)nn2-c2ccc(S(N)(=O)=O)cc2)cc1` in the records?
-- reply 0.919

-- ask Param item = `Cc1ccnc(NS(=O)(=O)c2ccc(N)cc2)n1` ; retrieve measured TCF/Wnt firefly luciferase reporter signal.
-- reply 0.924

-- ask Look at this compound and give its reported TCF/Wnt firefly luciferase reporter signal. CC(C)c1ncc(Cc2ccccc2)[nH]c1=O [Phevalin]
-- reply 0.982

-- ask Recorded TCF/Wnt firefly luciferase reporter signal of `C=C(CC)C(=O)c1ccc(OCC(=O)O)c(Cl)c1Cl` , please.
-- reply 1.11

-- ask Given `COc1ccc(C=CC(=O)O)cc1OC` , state its recorded TCF/Wnt firefly luciferase reporter signal.
-- reply 1.12

-- ask Endpoint output: TCF/Wnt firefly luciferase reporter signal of `N=C(N)NCCN1CCCCCCC1` . Value?
-- reply 0.983

-- ask Which value of TCF/Wnt firefly luciferase reporter signal has been reported for `NC[C@H](O)c1ccc(O)c(O)c1` in the records?
-- reply 0.962

-- ask Fill in the blank: the reported TCF/Wnt firefly luciferase reporter signal of `CC1(C)[C@@H](O[C@H]2O[C@H](C(=O)O)[C@@H](O)[C@H](O)[C@H]2O[C@@H]2O[C@H](C(=O)O)[C@@H](O)[C@H](O)[C@H]2O)CC[C@]2(C)[C@H]3C(=O)C=C4[C@@H]5C[C@@](C)(C(=O)O)CC[C@]5(C)CC[C@@]4(C)[C@]3(C)CC[C@@H]12` is ____.
-- reply 1.22

-- ask Item under review: COC(=O)C1=C(C)NC(C)=C(C(=O)OCCN(C)Cc2ccccc2)C1c1cccc([N+](=O)[O-])c1 (stereo unspecified) . Reported TCF/Wnt firefly luciferase reporter signal?
-- reply 0.941

-- ask Quick one: TCF/Wnt firefly luciferase reporter signal for CC1=CC2C(CC1=O)C(C)=CCC2C(C)C (stereo unspecified) ?
-- reply 0.987

-- ask Quick one: TCF/Wnt firefly luciferase reporter signal of `C/C1=C2/[N-][C@H]([C@H](CC(N)=O)[C@@]2(C)CCC(=O)NC[C@@H](C)OP(=O)([O-])O[C@H]2[C@@H](O)[C@@H](n3cnc4cc(C)c(C)cc43)O[C@@H]2CO)[C@]2(C)N=C(/C(C)=C3N=C(/C=C4N=C1[C@@H](CCC(N)=O)C\4(C)C)[C@@H](CCC(N)=O)[C@]\3(C)CC(N)=O)[C@@H](CCC(N)=O)[C@]2(C)CC(N)=O.[CH2-][C@H]1O[C@H](n2cnc3c(N)ncnc32)[C@@H](O)[C@H]1O.[Co+3]` ?
-- reply 0.968

-- ask Please look up its TCF/Wnt firefly luciferase reporter signal: CC(=O)Oc1cc(C)c2c(c1C=O)Oc1c(c(C)c(OC(C)=O)c3c1C(OC(C)=O)OC3=O)OC2=O (stereo unspecified)
-- reply 0.875

-- ask What value of TCF/Wnt firefly luciferase reporter signal has been reported for the following compound? `COc1cc(C(=O)N2CCOCC2)cc(OC)c1OC`
-- reply 1.04

-- ask Suppose we examine the compound `COC(=O)/C=C/C(C)=C\C=C\C(C)=C\C=C\C=C(C)\C=C\C=C(C)\C=C\C(=O)O` ; what TCF/Wnt firefly luciferase reporter signal value has been reported?
-- reply 0.981

-- ask Quick check: TCF/Wnt firefly luciferase reporter signal of `C[C@@H]1O[C@@H](O[C@H]2[C@H](Oc3cc(O)c4c(c3)O[C@H](c3ccc(O)cc3)CC4=O)O[C@H](CO)[C@@H](O)[C@@H]2O)[C@H](O)[C@H](O)[C@H]1O` ?
-- reply 0.992

-- ask Which measured TCF/Wnt firefly luciferase reporter signal value corresponds to `O=C(O)c1c2ccccc2cc2ccccc12` ?
-- reply 0.934
